// reported pKd for each item listed
target: T1, recombinant human CD4 (catalogue number: 514-CD/CF, manufactured by R&D Systems) (human, UniProt P01730 26-390); test: SPR, Biacore T100; antibody captured on anti-human IgG chip, recombinant human CD4 flowed; 1:1 binding model
T1 construct: Bought protein (R&D Systems); also called recombinant CD4
pKd: −log10 of the molar value.

{"binder": "anti-CD4 chimeric antibody KM4047 (antibody, V domains shown, Variable regions of rat KM4067 joined to the '113F type' human IgG1/IgG3 heavy chain constant region (US2007/0148165) and a human kappa constant region; Expressed in FUT8 knockout CHO cells (0% fucose)) VH: QVKLLQSGAALVKPGASVKMSCKASGYTFTDYWVHWVKQSHGKSLEWIGEIYPNNNTTNFNEKFKGKATLTVDKFTSTAYMELSRLTSEDSAIYYCTRGTVYYGLGYFDHWGQGVMVTVSS VL: DIRMTQSPASLSASLGETVNIECLASEDVYSDLAWYQQKPGKSPQLLIYNANNLQSGVPSRFSGSGSGTRYSLKINSLQSEDVATYFCQQYNNYPPYTFGAGTKLELK", "pKd": 9.43}
{"binder": "anti-CD4 chimeric antibody KM4049 (antibody, V domains shown, Variable regions of rat KM4069 joined to the '113F type' human IgG1/IgG3 heavy chain constant region (US2007/0148165) and a human kappa constant region; Expressed in FUT8 knockout CHO cells (0% fucose)) VH: QVQLKESGPGLVQPSQTLSLTCTVSGSSLTSNSVSWIRQPPGKGLEWMGVIWSNGDADYNSAIKSRLSISRDTSKSQVFLKMNSLQTEDTAMYFCASPYYGYYFPFDYWGQGVMVTVSS VL: DIQMTQSPASLSASLEEIVTITCKASQAIDAYLSWYQQKPGKSPQLLIYDATSLADGVPSRFSGSRSGTQYSLKISRPQVDDSGIYYCLQSYSTPFTFGSGTKLEIK", "pKd": 9.70}
{"binder": "anti-CD4 chimeric antibody KM4046 (antibody, V domains shown, Variable regions of rat KM4066 joined to the '113F type' human IgG1/IgG3 heavy chain constant region (US2007/0148165) and a human kappa constant region; Expressed in FUT8 knockout CHO cells (0% fucose)) VH: EVQLEESGGGLVQPGRSLKLSCLASGFTFSNYGMNWIRQAPGKGLEWVASISGSSTYIYYADTVKGRFTISRENAENTLYLQMTSLRSEDTALYYCAREGSSTDRYYEVSFAYWGQGTLVTVSS VL: DVVLTQTPVSLSVTLGDQASISCRSSQSLEYSDGYTYLEWYLQKPGQSPQVLIYGVSNRFSGVPDRFIGSGSGTDFTLKISRVEPEDLGVYYCFQATHDPYTFGAGTRLELK", "pKd": 10.21}
{"binder": "anti-CD4 human antibody 6G5-1 (antibody, V domains shown) VH: QVQLQQWGAGLLKPSETLSLTCAVYGGSFSGYYWSWIRQPPGKGLEWIGEINHSGSTNYNPSLKSRVTISVDTSKNQFSLKLSSVTAADTAVYYCARVINWFDPWGQGTLVTVSS VL: DIQMTQSPSSVSASVGDRVTITCRASQDISSWLAWYQHKPGKAPKLLIYAASSLQSGVPSRFSGSGSGTDFTLTISSLQPEDFATYYCQQANSFPYTFGQGTKLEIKR", "pKd": 8.84}
